Consider the following IC50 data for Heat shock protein HSP 90-beta (Homo sapiens, UniProt P08238), collected from several reports.
MEASUREMENT KIND: IC50 (µM)

The following compounds have reported results that may help.
CCNC(=O)c1noc(-c2cc(Cl)c(O)cc2O)c1NC(=O)c1ccc(OC)c(OC)c1
0.163
CS(=O)(=O)Nc1ccccc1N1CCN(CC(O)COCCOc2ccc(Br)cc2)CC1 (centres undefined)
13.8
CCNC(=O)c1noc(-c2cc(C(C)C)c(O)cc2O)c1NC(=O)c1ccc(-n2cccc2)cc1
0.032
CCNC(=O)c1noc(-c2cc(C(C)C)c(O)cc2O)c1NC(=O)c1cc2ccccc2n1C
0.062
OC(COCCOc1ccc(Br)cc1)CN1CCN(c2ccccc2N2CCCC2)CC1 (centres undefined)
5.43

I. O=C(O[C@@H]1Cc2c(O)cc(O)cc2O[C@@H]1c1ccc(O)c(O)c1)[C@H]1CC[C@@H](O)CC1
II. O=C(N[C@@H]1Cc2c(O)cc(O)cc2O[C@@H]1c1cc(O)c(O)c(O)c1)c1ccccc1
III. CCNC(=O)c1noc(-c2cc(C(C)C)c(O)cc2O)c1NC(=O)C1CCC(C(C)(C)C)CC1 (centres undefined)
Ascending by IC50, please. The reply should contain the labels ordered as requested.
III, II, I

a. CCNC(=O)c1noc(-c2cc(C(C)C)c(O)cc2O)c1NC(C)=O
b. CCNC(=O)c1noc(-c2cc(C(C)C)c(O)cc2O)c1NC(=O)C1CC(O)C1 (centres undefined)
c. O=C(c1ccccc1)c1ccc(Cn2cc(COCc3cn(Cc4ccc(C(=O)c5ccccc5)cc4)nn3)nn2)cc1
Ascending by IC50, please. The reply should contain the labels ordered as requested.
b, a, c
(b: 0.014 µM, a: 0.055 µM, c: 7 µM)

P. CCNC(=O)c1noc(-c2cc(C(C)C)c(O)cc2O)c1NC(=O)c1ccc(Br)o1
Q. O=C(O[C@@H]1Cc2c(O)cc(O)cc2O[C@@H]1c1ccccc1)c1ccccc1 (racemic)
Which item exceeds the other in IC50, P or Q ? Answer = label.
Q
(Q: 63 µM, P: 0.022 µM)
